Target Desc: hGIPR (Homo sapiens, UniProt P48546)
Sequence (P48546 22-466): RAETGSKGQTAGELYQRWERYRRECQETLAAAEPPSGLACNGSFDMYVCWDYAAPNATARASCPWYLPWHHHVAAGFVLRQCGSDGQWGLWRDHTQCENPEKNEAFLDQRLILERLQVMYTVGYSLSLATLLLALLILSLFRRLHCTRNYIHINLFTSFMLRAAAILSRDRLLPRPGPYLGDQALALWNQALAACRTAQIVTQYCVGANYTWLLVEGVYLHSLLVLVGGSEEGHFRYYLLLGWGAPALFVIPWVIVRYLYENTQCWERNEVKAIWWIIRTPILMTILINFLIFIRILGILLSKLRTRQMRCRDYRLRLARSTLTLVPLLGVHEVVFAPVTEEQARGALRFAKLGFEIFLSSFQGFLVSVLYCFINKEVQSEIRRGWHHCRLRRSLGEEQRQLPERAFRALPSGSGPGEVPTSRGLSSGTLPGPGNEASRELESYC
Protocol Notes: Functional cAMP activation in the presence of 0.1% casein (no HSA);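 note: intracellular cAMP rise after 30 min at 37 °C read by HTRF against a standard curve, scaled between buffer alone (0%) and top control ligand concentration (100%), four-parameter fit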
Assay type: cell-based
Condition: in the presence of 0.1% casein (no HSA); geometric mean; read-out: Relative cAMP EC50, hGIPR
Starred links: 1 amine or outer side, 2 acyl side, 3 side chain; linkers in the order of their positions; H or OH if unused. Non-standard residues stand in square brackets, D forms with d. Groups on a side chain read outwards from the residue. No end group written: not given here. *: point of attachment. C18 diacid = O=C(O)CCCCCCCCCCCCCCCCC(=O)*; γGlu = O=C(O)[C@H](CCC(=O)[*:2])N[*:1]; αMe4Pal = C[C@](N)(Cc1ccncc1)C(=O)O; αMeY = C[C@](N)(Cc1ccc(O)cc1)C(=O)O; αMeF = C[C@](N)(Cc1ccccc1)C(=O)O; 4Pal = N[C@@H](Cc1ccncc1)C(=O)O; αMeL = CC(C)C[C@](C)(N)C(=O)O; αMeS = C[C@](N)(CO)C(=O)O; Orn = NCCC[C@H](N)C(=O)O; Dab = NCC[C@H](N)C(=O)O; AEEA = NCCOCCOCC(=O)O; Aib = CC(C)(N)C(=O)O
Readout Kind: EC50
Mention the unit after the number when you answer.

Substance | EC50
H-Y[Aib]QGTFTSD[4Pal]SR[αMeL]LDKK([AEEA-γGlu-C18 diacid])AQ[Aib]AFIE[αMeY]LLEGGPSSGAPPPSGS-NH2 [Example 909] | 0.121 nM
H-Y[Aib]QGT[αMeF]TSD[4Pal][αMeS]I[αMeL]LD[Orn]K([γGlu-γGlu-C18 diacid])AQ[αMe4Pal]EFI[dE][αMeY]LIEGGPSSGEPPPSGSE-NH2 [Example 1173] | 0.00943 nM
H-Y[Aib]QGTFTSDFS[Dab][αMeL]LDKK([AEEA-γGlu-C18 diacid])AQ[Aib]AFIEYLLE[Aib]GPSSGAPPPSGS-NH2 [Example 133] | 0.15 nM
H-Y[Aib]QGTFTSD[4Pal]SQ[αMeL]LD[Orn]K([γGlu-γGlu-C18 diacid])AQ[αMe4Pal]AFIEYLIA[Aib]GPSSGEPPPSGSEE-NH2 [Example 1092] | 0.0648 nM
Y[Aib]QGTFTSDFS[Orn][αMeL]LDKK([γGlu-γGlu-C18 diacid])AQ[Aib]AFIEYLLEGGPSSGAPPPSGT-NH2 [Example 260] | 0.251 nM

// sample H-Y[Aib]QGTFTSD[4Pal]S[Orn][αMeL]LDKK([AEEA-γGlu-C18 diacid])AQ[αMe4Pal]AFIE[αMe4Pal]LIEGGPSSGAPPPSGS-NH2 [Example 949] , its EC50 was 0.203 nM
